Data origin: ChEMBL document CHEMBL3112412

- measurement-protocol: Displacement of [3H]-DTG from sigma 2 receptor in guinea pig brain after 120 mins by liquid scintillation counting
- Design: species or system Cavia porcellus
metric-name: Ki

Worked examples follow.
- CCN(CC1CCN(Cc2ccc(Cl)cc2)CC1)C(=O)c1cccc2ccccc12: > 1000 nM
- CCN(CC1CCN(Cc2ccccc2)CC1)C(=O)c1ccco1: > 3000 nM
- CCN(CC1CCN(Cc2ccc(Cl)cc2)CC1)C(=O)c1ccc(OC)cc1: 283 nM
- CCN(CC1CCN(Cc2ccccc2)CC1)C(=O)c1cccc2ccccc12: > 1000 nM

Now look at this entry.
Briefly, Ki measured for CCN(CC1CCN(Cc2ccc(Cl)cc2)CC1)C(=O)c1ccco1 : > 500 nM

###

For each of the compounds below, state its pKi.
- measurement-protocol: Displacement of [3H]-DTG from sigma 2 receptor in guinea pig brain after 120 mins by liquid scintillation counting
- Design: species or system Cavia porcellus
pKi: −log10 of the molar value.

Worked examples follow.
- CCN(CC1CCN(Cc2ccccc2)CC1)C(=O)c1ccc(Cl)cc1: < 6.00
- CCN(CC1CCN(Cc2ccccc2)CC1)C(=O)c1ccc(C)cc1: < 6.30
- CCN(CC1CCN(Cc2ccc(Cl)cc2)CC1)C(=O)c1ccc(Cl)cc1: < 6.00
- CCN(CC1CCN(Cc2ccccc2)CC1)C(=O)c1ccc2ccccc2c1: 6.57
- CCN(CC1CCN(Cc2ccccc2)CC1)C(=O)c1ccc(-c2ccccc2)cc1: < 6.30

Now look at this entry.
Briefly, pKi measured for CCN(CC1CCN(Cc2ccc(Cl)cc2)CC1)C(=O)c1ccc(C)cc1 : < 6.30

###

For each of the compounds below, state its Ki.
- measurement-target: Sigma non-opioid intracellular receptor 1 (Rattus norvegicus)
- measurement-protocol: Displacement of [3H](+)-pentazocine from sigma 1 receptor in rat liver homogenate after 120 mins by liquid scintillation counting
Give bare numbers, in nM.

Provide reported Ki for each item, in the same order as listed.
1. CCN(CC1CCN(Cc2ccccc2)CC1)C(=O)c1ccc(C)cc1
2. CCN(CC1CCN(Cc2ccccc2)CC1)C(=O)c1cccc2ccccc12

Solution:
1: 160; 2: 161

###

- measurement-target: Sigma non-opioid intracellular receptor 1 (Rattus norvegicus, UniProt Q9R0C9)
- Sequence (Q9R0C9 whole entry): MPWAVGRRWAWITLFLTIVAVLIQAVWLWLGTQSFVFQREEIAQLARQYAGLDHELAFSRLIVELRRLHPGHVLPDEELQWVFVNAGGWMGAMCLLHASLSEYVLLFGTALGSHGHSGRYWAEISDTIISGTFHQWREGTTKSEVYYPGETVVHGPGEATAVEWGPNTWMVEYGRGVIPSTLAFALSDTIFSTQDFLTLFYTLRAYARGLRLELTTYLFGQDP
- measurement-protocol: Displacement of [3H](+)-pentazocine from sigma 1 receptor in rat liver homogenate after 120 mins by liquid scintillation counting
metric-name: pKi
Give bare numbers, as −log10 of the molar value.

Worked examples follow.
- CCN(CC1CCN(Cc2ccccc2)CC1)C(=O)c1ccc(OC)cc1: 6.72
- CCN(CC1CCN(Cc2ccc(Cl)cc2)CC1)C(=O)c1ccco1: 7.87
- CCN(CC1CCN(Cc2ccccc2)CC1)C(=O)c1ccc2ccccc2c1: 6.70

Now look at this entry.
Briefly, pKi measured for CCN(CC1CCN(Cc2ccc(Cl)cc2)CC1)C(=O)c1ccc(C)cc1 : 6.85
